Documented tissue uptake at 4 h across a set of compounds
EXPERIMENTAL PROTOCOL: in vivo
ASSAY SETUP: female, athymic nude-Foxn1nu/Foxn1+, mouse, 20 pmol, total radioactivity, Biodistribution Pituitary
Where a SMILES comes first, the peptide text is derived from it. Bridges are numbered along the chain shown (N, C = ends). [ ]: non-standard residue; d: D form. The star is where a group is joined. dPhe(4-NHCONH2) = NC(=O)Nc1ccc(C[C@@H](N)C(=O)O)cc1; Phe(4-Cl) = N[C@@H](Cc1ccc(Cl)cc1)C(=O)O; X1 = NCCNCC(CNCCN)C(=O)*
Report only the number, with the unit %ID/g understood.

{"columns": ["COMPOUND", "tissue uptake at 4 h (%ID/g)"],
 "data": [
  ["C[C@@H](O)[C@@H]1NC(=O)[C@H](CCCCN)NC(=O)[C@@H](Cc2ccc(NC(N)=O)cc2)NC(=O)[C@H](Cc2ccc(O)cc2)NC(=O)[C@H](NC(=O)[C@H](Cc2ccc(Cl)cc2)NC(=O)C(CNCCN)CNCCN)CSSC[C@@H](C(=O)N[C@H](Cc2ccc(O)cc2)C(N)=O)NC1=O [[^99mTc]Tc-TECANT-1, metal not drawn] (X1-[Phe(4-Cl)][dC]Y[dPhe(4-NHCONH2)]KTC[dY]-NH2; disulfide 2-7)", 6.66]
]}

Next:
Report tissue uptake at 4 h for C[C@@H](O)[C@@H]1NC(=O)[C@H](CCCCN)NC(=O)[C@@H](Cc2c[nH]c3ccccc23)NC(=O)[C@H](Cc2ccc(O)cc2)NC(=O)[C@H](NC(=O)[C@H](Cc2ccc(Cl)cc2)NC(=O)C(CNCCN)CNCCN)CSSC[C@@H](C(=O)N[C@H](Cc2ccc(O)cc2)C(N)=O)NC1=O [[^99mTc]Tc-TECANT-2, metal not drawn] 1.21

----------
EXPERIMENTAL PROTOCOL: in vivo
ASSAY SETUP: female, athymic nude-Foxn1nu/Foxn1+, mouse, 20 pmol, total radioactivity, Biodistribution Muscle
Where a SMILES comes first, the peptide text is derived from it. Bridges are numbered along the chain shown (N, C = ends). [ ]: non-standard residue; d: D form. The star is where a group is joined. dPhe(4-NHCONH2) = NC(=O)Nc1ccc(C[C@@H](N)C(=O)O)cc1; Phe(4-Cl) = N[C@@H](Cc1ccc(Cl)cc1)C(=O)O; X1 = NCCNCC(CNCCN)C(=O)*
tissue uptake at 1 h reference
Kindly provide the numeric value in %ID/g only, without the unit symbol.

{"columns": ["COMPOUND", "RESULT TYPE", "UNIT OF MEASUREMENT", "ENDPOINT RESULT"],
 "data": [
  ["C[C@@H](O)[C@@H]1NC(=O)[C@H](CCCCN)NC(=O)[C@@H](Cc2ccc(NC(N)=O)cc2)NC(=O)[C@H](Cc2ccc(O)cc2)NC(=O)[C@H](NC(=O)[C@H](Cc2ccc(Cl)cc2)NC(=O)C(CNCCN)CNCCN)CSSC[C@@H](C(=O)N[C@H](Cc2ccc(O)cc2)C(N)=O)NC1=O [[^99mTc]Tc-TECANT-1, metal not drawn] (X1-[Phe(4-Cl)][dC]Y[dPhe(4-NHCONH2)]KTC[dY]-NH2; disulfide 2-7)", "tissue uptake at 1 h", "%ID/g", 0.23]
]}

Here is another compound to look at.
Let me know recorded tissue uptake at 1 h for C[C@@H](O)[C@@H]1NC(=O)[C@H](CCCCN)NC(=O)[C@@H](Cc2c[nH]c3ccccc23)NC(=O)[C@H](Cc2ccc(O)cc2)NC(=O)[C@H](NC(=O)[C@H](Cc2ccc(Cl)cc2)NC(=O)C(CNCCN)CNCCN)CSSC[C@@H](C(=O)N[C@H](Cc2ccc(O)cc2)C(N)=O)NC1=O [[^99mTc]Tc-TECANT-2, metal not drawn] , thanks. 0.69

----------
EXPERIMENTAL PROTOCOL: in vivo
ASSAY SETUP: female, athymic nude-Foxn1^nu/Foxn1^+, mouse, 20 pmol, total radioactivity, Biodistribution Heart
Where a SMILES comes first, the peptide text is derived from it. Bridges are numbered along the chain shown (N, C = ends). [ ]: non-standard residue; d: D form. The star is where a group is joined. dPhe(4-NHCONH2) = NC(=O)Nc1ccc(C[C@@H](N)C(=O)O)cc1; Phe(4-Cl) = N[C@@H](Cc1ccc(Cl)cc1)C(=O)O; X1 = NCCNCC(CNCCN)C(=O)*
Measured tissue uptake at 24 h of individual entries
Write the value in %ID/g as a bare number.

{"columns": ["COMPOUND", "RESULT TYPE", "ENDPOINT RESULT"],
 "data": [
  ["C[C@@H](O)[C@@H]1NC(=O)[C@H](CCCCN)NC(=O)[C@@H](Cc2c[nH]c3ccccc23)NC(=O)[C@H](Cc2ccc(O)cc2)NC(=O)[C@H](NC(=O)[C@H](Cc2ccc(Cl)cc2)NC(=O)C(CNCCN)CNCCN)CSSC[C@@H](C(=O)N[C@H](Cc2ccc(O)cc2)C(N)=O)NC1=O [[^99mTc]Tc-TECANT-2, metal not drawn]", "tissue uptake at 24 h", 0.05]
]}

Now for the compound whose tissue uptake at 24 h we want.
Given C[C@@H](O)[C@@H]1NC(=O)[C@H](CCCCN)NC(=O)[C@@H](Cc2ccc(NC(N)=O)cc2)NC(=O)[C@H](Cc2ccc(O)cc2)NC(=O)[C@H](NC(=O)[C@H](Cc2ccc(Cl)cc2)NC(=O)C(CNCCN)CNCCN)CSSC[C@@H](C(=O)N[C@H](Cc2ccc(O)cc2)C(N)=O)NC1=O [[^99mTc]Tc-TECANT-1, metal not drawn] (X1-[Phe(4-Cl)][dC]Y[dPhe(4-NHCONH2)]KTC[dY]-NH2; disulfide 2-7) , respond with its tissue uptake at 24 h. 0.05

----------
The entries below are paired with their reported tissue uptake at 1 h.
EXPERIMENTAL PROTOCOL: in vivo
ASSAY SETUP: female, athymic nude-Foxn1^nu/Foxn1^+, mouse, 20 pmol, total radioactivity, Biodistribution Pancreas
Where a SMILES comes first, the peptide text is derived from it. Bridges are numbered along the chain shown (N, C = ends). [ ]: non-standard residue; d: D form. The star is where a group is joined. dPhe(4-NHCONH2) = NC(=O)Nc1ccc(C[C@@H](N)C(=O)O)cc1; Phe(4-Cl) = N[C@@H](Cc1ccc(Cl)cc1)C(=O)O; X1 = NCCNCC(CNCCN)C(=O)*
Record the value in %ID/g, omitting the unit from your answer.

{"columns": ["MOLECULE", "tissue uptake at 1 h (%ID/g)"],
 "data": [
  ["C[C@@H](O)[C@@H]1NC(=O)[C@H](CCCCN)NC(=O)[C@@H](Cc2ccc(NC(N)=O)cc2)NC(=O)[C@H](Cc2ccc(O)cc2)NC(=O)[C@H](NC(=O)[C@H](Cc2ccc(Cl)cc2)NC(=O)C(CNCCN)CNCCN)CSSC[C@@H](C(=O)N[C@H](Cc2ccc(O)cc2)C(N)=O)NC1=O [[^99mTc]Tc-TECANT-1, metal not drawn] (X1-[Phe(4-Cl)][dC]Y[dPhe(4-NHCONH2)]KTC[dY]-NH2; disulfide 2-7)", 47.8]
]}

Shift focus to the following entry.
Determine its reported tissue uptake at 1 h: C[C@@H](O)[C@@H]1NC(=O)[C@H](CCCCN)NC(=O)[C@@H](Cc2c[nH]c3ccccc23)NC(=O)[C@H](Cc2ccc(O)cc2)NC(=O)[C@H](NC(=O)[C@H](Cc2ccc(Cl)cc2)NC(=O)C(CNCCN)CNCCN)CSSC[C@@H](C(=O)N[C@H](Cc2ccc(O)cc2)C(N)=O)NC1=O [[^99mTc]Tc-TECANT-2, metal not drawn] 16.4

----------
Type: physicochemical
ASSAY SETUP: pH 7.4
Where a SMILES comes first, the peptide text is derived from it. Bridges are numbered along the chain shown (N, C = ends). [ ]: non-standard residue; d: D form. The star is where a group is joined. dPhe(4-NHCONH2) = NC(=O)Nc1ccc(C[C@@H](N)C(=O)O)cc1; Phe(4-Cl) = N[C@@H](Cc1ccc(Cl)cc1)C(=O)O; X1 = NCCNCC(CNCCN)C(=O)*
logD values by entry
Note: the reply should be a number with no unit written.

{"columns": ["COMPOUND", "ENDPOINT RESULT"],
 "data": [
  ["C[C@@H](O)[C@@H]1NC(=O)[C@H](CCCCN)NC(=O)[C@@H](Cc2c[nH]c3ccccc23)NC(=O)[C@H](Cc2ccc(O)cc2)NC(=O)[C@H](NC(=O)[C@H](Cc2ccc(Cl)cc2)NC(=O)C(CNCCN)CNCCN)CSSC[C@@H](C(=O)N[C@H](Cc2ccc(O)cc2)C(N)=O)NC1=O [[^99mTc]Tc-TECANT-2, metal not drawn]", -1.63]
]}

Give the measured logD for C[C@@H](O)[C@@H]1NC(=O)[C@H](CCCCN)NC(=O)[C@@H](Cc2ccc(NC(N)=O)cc2)NC(=O)[C@H](Cc2ccc(O)cc2)NC(=O)[C@H](NC(=O)[C@H](Cc2ccc(Cl)cc2)NC(=O)C(CNCCN)CNCCN)CSSC[C@@H](C(=O)N[C@H](Cc2ccc(O)cc2)C(N)=O)NC1=O [[^99mTc]Tc-TECANT-1, metal not drawn] (X1-[Phe(4-Cl)][dC]Y[dPhe(4-NHCONH2)]KTC[dY]-NH2; disulfide 2-7) -2.53
